- TESTED_SYSTEM: T1, Recombinant human Dkk-1 (R&D Systems cat no. 1096-DK/CF), 10xHis tag at the C terminal (human, UniProt O94907 32-266)
- T1 construct: the actual N-terminus of the purified protein is marked in bold italic after residue 30, but the mark is an image lost in the text; also called rhuDkk-1; hDkk-1
- T1 sequence: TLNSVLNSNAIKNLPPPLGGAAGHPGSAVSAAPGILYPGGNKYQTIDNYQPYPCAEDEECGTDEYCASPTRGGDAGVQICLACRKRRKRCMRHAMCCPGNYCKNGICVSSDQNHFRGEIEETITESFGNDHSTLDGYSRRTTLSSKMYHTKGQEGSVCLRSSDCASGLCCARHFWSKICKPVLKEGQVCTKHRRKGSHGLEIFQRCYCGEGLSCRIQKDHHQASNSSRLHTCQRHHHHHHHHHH
- PROCEDURE_TEXT: theoretical: koff / estimated kon 1e6 1/Ms (SPR screening 37C)
In this section we review reported Kd values for a set of binders.
Numbers only here, please. The scale is nM.

Known Kd results, listed for orientation:
BINDER	MEASUREMENT_UNITS	MEASUREMENT
SL3.4D1 (Fab, V domains shown, tested as Fab (E. coli lysate, screening mode); human kappa CL and IgG2 CH1 not included here) VH: EVQLVESGGGLVQPGGSLRLSCAASGFTFSSYAISWVRQAPGKGLEWVASVSGGGRTYYPDSVKGRFTISRDNAKNSLYLQMNSLRAEDTAVYYCATSLENYAFDYWGQGTTVTVSS VL: EIVLTQSPATLSLSPGERATLSCRASESVDDFGISFMNWYQQKPGQAPRLLIYAASKQGSGIPARFSGSGSGTDFTLTISSLEPEDFAVYYCQQSMEVPPTFGGGTKVEIK	nM	7.5
SL3.1G9 (Fab, V domains shown, tested as Fab (E. coli lysate, screening mode); human kappa CL and IgG2 CH1 not included here) VH: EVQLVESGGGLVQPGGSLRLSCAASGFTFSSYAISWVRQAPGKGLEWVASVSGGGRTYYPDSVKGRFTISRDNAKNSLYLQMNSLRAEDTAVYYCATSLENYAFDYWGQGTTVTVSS VL: EIVLTQSPATLSLSPGERATLSCRASESVDDFGISFMNWYQQKPGQAPRLLIYAASKQGSGIPARFSGSGSGTDFTLTISSLEPEDFAVYYCQQLKEVPPTFGGGTKVEIK	nM	0.947
L3.2H8 (Fab, V domains shown, tested as Fab (E. coli lysate, screening mode); human kappa CL and IgG2 CH1 not included here) VH: EVQLVESGGGLVQPGGSLRLSCAASGFTFSSYAISWVRQAPGKGLEWVASVSGWLGTYYPDSVKGRFTISRDNAKNSLYLQMNSLRAEDTAVYYCATSLQNYAFDYWGQGTTVTVSS VL: EIVLTQSPATLSLSPGERATLSCRASESVDDFGISFINWYQQKPGQAPRLLIYAGSKQGSGIPARFSGSGSGTDFTLTISSLEPEDFAVYYCQQLKEVPPTFGGGTKVEIK	nM	0.555
SL3.4F5 (Fab, V domains shown, tested as Fab (E. coli lysate, screening mode); human kappa CL and IgG2 CH1 not included here) VH: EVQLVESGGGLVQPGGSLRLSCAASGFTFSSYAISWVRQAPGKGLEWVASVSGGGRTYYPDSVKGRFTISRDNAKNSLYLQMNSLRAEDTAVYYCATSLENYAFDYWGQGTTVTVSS VL: EIVLTQSPATLSLSPGERATLSCRASESVDDFGISFMNWYQQKPGQAPRLLIYAASKQGSGIPARFSGSGSGTDFTLTISSLEPEDFAVYYCQQGKEVPPTFGGGTKVEIK	nM	7.8
L2.4E1 (Fab, V domains shown, G55# and L56# read as gaps; tested as Fab (E. coli lysate, screening mode); human kappa CL and IgG2 CH1 not included here) VH: EVQLVESGGGLVQPGGSLRLSCAASGFTFSSYAISWVRQAPGKGLEWVASVSGHGVWTYYPDSVKGRFTISRDNAKNSLYLQMNSLRAEDTAVYYCATSLENYAFDYWGQGTTVTVSS VL: EIVLTQSPATLSLSPGERATLSCRASESVDDFGISFMNWYQQKPGQAPRLLIYAASKQGSGIPARFSGSGSGTDFTLTISSLEPEDFAVYYCQQSKEVPPTFGGGTKVEIK	nM	5.51

Give Kd for the following binder: L3.2H10 (Fab, V domains shown, tested as Fab (E. coli lysate, screening mode); human kappa CL and IgG2 CH1 not included here) VH: EVQLVESGGGLVQPGGSLRLSCAASGFTFSSYAISWVRQAPGKGLEWVASVSGWLGTYYPDSVKGRFTISRDNAKNSLYLQMNSLRAEDTAVYYCATSLKNYAFDYWGQGTTVTVSS VL: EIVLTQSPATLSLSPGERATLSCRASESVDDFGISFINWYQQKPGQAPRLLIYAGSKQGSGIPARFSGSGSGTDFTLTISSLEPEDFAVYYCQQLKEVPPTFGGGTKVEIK
0.569

Give Kd for the following binder: SL3.3A10 (Fab, V domains shown, tested as Fab (E. coli lysate, screening mode); human kappa CL and IgG2 CH1 not included here) VH: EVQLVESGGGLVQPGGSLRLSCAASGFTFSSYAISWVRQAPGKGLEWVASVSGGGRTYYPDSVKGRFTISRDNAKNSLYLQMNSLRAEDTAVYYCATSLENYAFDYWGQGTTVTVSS VL: EIVLTQSPATLSLSPGERATLSCRASESVDDFGISFMNWYQQKPGQAPRLLIYAASKQGSGIPARFSGSGSGTDFTLTISSLEPEDFAVYYCQQSKELPPTFGGGTKVEIK
5.72
